These measurements were taken from patent US20210130452A1.

Recorded measurements of IC50 fold difference compared to WT, one per entry
Target: T1, human IL-17A (human, UniProt Q16552 24-155)
T1 construct: secreted form made in Hek293 cells (GenBank U32659); also called hIL-17A; hIL17A
T1 sequence (Q16552 other isoform, or with tags, fused parts or gaps): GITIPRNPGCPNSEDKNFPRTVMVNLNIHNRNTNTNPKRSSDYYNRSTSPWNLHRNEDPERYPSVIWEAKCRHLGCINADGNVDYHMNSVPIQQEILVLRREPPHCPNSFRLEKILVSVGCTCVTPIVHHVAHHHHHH
Assay: AlphaScreen hIL-17A-IL-17RA; vs IL17MS13B03
MEASURED_ENDPOINT: IC50 fold difference compared to WT

BINDER	MEASURED_ENDPOINT	OBS_VALUE
IL17MS3052 (VHH, variant of IL17MS13B03; Kabat numbering) VHH: EVQLVESGGGSVQAGDSLRLSCAASGRASSINWFGWFRQTPGKEREFVAGIRWSDAYTEYANSVKGRFTISRDNAKNTVDLQMDSLKPEDTAVYYCVLDLSTVRYWGQGTQVTVSS	IC50 fold difference compared to WT	0.9 fold
IL17MS3053 (VHH, variant of IL17MS13B03; Kabat numbering) VHH: EVQLVESGGGSVQAGDSLRLSCAASGRANTINWFGWFRQTPGKEREFVAGIRWSDAYTEYANSVKGRFTISRDNAKNTVDLQMDSLKPEDTAVYYCVLDLSTVRYWGQGTQVTVSS	IC50 fold difference compared to WT	1.3 fold
IL17MS3051 (VHH, variant of IL17MS13B03; Kabat numbering) VHH: EVQLVESGGGSVQAGDSLRLSCAASGRAFSINWFGWFRQTPGKEREFVAGIRWSDAYTEYANSVKGRFTISRDNAKNTVDLQMDSLKPEDTAVYYCVLDLSTVRYWGQGTQVTVSS	IC50 fold difference compared to WT	1.4 fold
IL17MS3047 (VHH, variant of IL17MS13B03; Kabat numbering) VHH: EVQLVESGGGLVQPGGSLRLSCAASGRANSINWFGWFRQAPGKEREFVAGIRWSDAYTEYAASVKGRFTISRDNSKNTVYLQMNSLRPEDTAVYYCVLDLSTVRYWGQGTLVTVSS	IC50 fold difference compared to WT	1.1 fold
